Tested on: SR
Assay: NCI tumour cell line growth inhibition, 48 h
The source made the active and inactive calls. Rule as the data show it: active = GI50 up to about 1.1 µM and inactive = higher.
Answer with one of the outcomes TRUE for active, FALSE for inactive

Example entries and their recorded answers appear below.
COMPOUND	CLASS
CC(C)CCC[C@@H](C)[C@H]1CC[C@H]2[C@@H]3CC=C4C[C@@H](OC(=O)c5cccc6c(=O)c7ccccc7[nH]c56)CC[C@]4(C)[C@H]3CC[C@]12C	FALSE
CCC1=NC(N/N=C/c2ccccc2O)=N/C1=C\c1ccccc1O	FALSE

Record lookup: outcome of this test for CCCC1NC(C#N)(C#N)C(CCC)NC1(C#N)C#N (configuration not stated) ?
TRUE

Record lookup: outcome of this test for CC1=CC(=O)C(C(O)(C(F)(F)F)C(F)(F)F)C(C)(C)C1 (configuration not stated) ?
FALSE

Record lookup: outcome of this test for CC[n+]1[b-](C(C)(C)C)n(/N=C/C(C)(C)C)[b-](C(C)(C)C)[n+]1CC ?
FALSE

Record lookup: outcome of this test for [N-]=[N+]=Nc1cc(=O)n(-c2ccccc2)c2ccccc12 ?
FALSE

Record lookup: outcome of this test for CC(C)(C)N1CSC(=S)N(Cc2ccco2)C1 ?
TRUE
